system: NCI-H1915; test: relative viability (nuclei count vs DMSO), 5 days (fraction); higher = more cells survive; settings: first compound 0.03162 µM
measured_attribute: relative viability
# output: bare number, no unit

Per the reported NCI-H1915 data, O=c1cc(N2CCOCC2)oc2c(-c3cccc4c3sc3ccccc34)cccc12 + N=C(N)NC(=N)NCCc1ccccc1 [Phenformin] (partner 250 µM) has relative viability of 0.387

Per the reported NCI-H1915 data, CCN(CC)CCCCNc1ncc2cc(-c3cc(OC)cc(OC)c3)c(NC(=O)NC(C)(C)C)nc2n1 + CS(=O)(=O)N1CCN(Cc2cc3nc(-c4cccc5[nH]ncc45)nc(N4CCOCC4)c3s2)CC1 [Pictilisib] (partner 1 µM) has relative viability of 0.92

Per the reported NCI-H1915 data, CCN(CC)CCCCNc1ncc2cc(-c3cc(OC)cc(OC)c3)c(NC(=O)NC(C)(C)C)nc2n1 + CC(C)C[C@H](NC(=O)[C@H](Cc1ccccc1)NC(=O)c1cnccn1)B(O)O [Bortezomib] (partner 0.002 µM) has relative viability of 1.1

Per the reported NCI-H1915 data, O=c1cc(N2CCOCC2)oc2c(-c3cccc4c3sc3ccccc34)cccc12 + CC1(C)CCC(c2ccc(Cl)cc2)=C(CN2CCN(c3ccc(C(=O)NS(=O)(=O)c4ccc(N[C@H](CCN5CCOCC5)CSc5ccccc5)c(S(=O)(=O)C(F)(F)F)c4)cc3)CC2)C1 [Navitoclax] (partner 0.5 µM) has relative viability of 0.788

Per the reported NCI-H1915 data, CCN(CC)CCCCNc1ncc2cc(-c3cc(OC)cc(OC)c3)c(NC(=O)NC(C)(C)C)nc2n1 + C[C@@H](Oc1cc(-c2cnn(C3CCNCC3)c2)cnc1N)c1c(Cl)ccc(F)c1Cl [Crizotinib] (partner 1 µM) has relative viability of 0.926

Per the reported NCI-H1915 data, O=c1cc(N2CCOCC2)oc2c(-c3cccc4c3sc3ccccc34)cccc12 + COc1cccc2cc(-c3nc([C@H]4CC[C@H](C(=O)O)CC4)n4ncnc(N)c34)[nH]c12 [OSI-027] (partner 0.5 µM) has relative viability of 0.796

Per the reported NCI-H1915 data, CCN(CC)CCCCNc1ncc2cc(-c3cc(OC)cc(OC)c3)c(NC(=O)NC(C)(C)C)nc2n1 + CS(=O)(=O)CCNCc1ccc(-c2ccc3ncnc(Nc4ccc(OCc5cccc(F)c5)c(Cl)c4)c3c2)o1 [Lapatinib] (partner 2 µM) has relative viability of 1.03

Per the reported NCI-H1915 data, CCN(CC)CCCCNc1ncc2cc(-c3cc(OC)cc(OC)c3)c(NC(=O)NC(C)(C)C)nc2n1 + Nc1nc2[nH]cc(CCc3ccc(C(=O)N[C@@H](CCC(=O)O)C(=O)O)cc3)c2c(=O)[nH]1 [Pemetrexed] (partner 0.2 µM) has relative viability of 0.521

Per the reported NCI-H1915 data, O=c1cc(N2CCOCC2)oc2c(-c3cccc4c3sc3ccccc34)cccc12 + Cc1cc(Nc2cc(N3CCN(C)CC3)nc(Sc3ccc(NC(=O)C4CC4)cc3)n2)n[nH]1 [Tozasertib] (partner 0.1 µM) has relative viability of 0.438
